I'd appreciate it if you could supply IC50 values for the items below.
tested on: Vero; experiment: Cytotoxicity against african green monkey Vero cells after 4 hrs by MTT assay; type: cell-based; details: Chlorocebus sabaeus
Numbers only, in µM.

Known IC50 results, listed for orientation:
The value of IC50 measured for the compound `C[C@]1(CO)CCC[C@]2(C)[C@H]3CC(=O)[C@@]4(C)[C@@H]([C@@H]3CC[C@@H]12)[C@@H]4CO` turned out to be 433

Per the records, this compound ( `CC(=O)OC[C@]1(C)CCC[C@]2(C)[C@H]3CCC(C=O)=C(C)[C@@H]3CC(=O)[C@@H]12` ) has IC50 equal to 416

According to the records, this compound `C=CC1=C(CO)[C@@H]2C[C@@H](O)[C@H]3[C@](C)(COC(C)=O)CCC[C@]3(C)[C@H]2CC1` displays IC50 of 156

Alright, here's another compound for you.
// `CC(=O)OC[C@H]1[C@@H]2[C@@H]3CC[C@H]4[C@@](C)(CO)CCC[C@]4(C)[C@H]3CC(=O)[C@@]21C` : IC50 value = 448

Values from ChEMBL document CHEMBL1148923
